Target: CDK2/Cyclin A (Homo sapiens)
Assay: Inhibition of CDK2/Cyclin A Retinoblastoma Kinase Activity
Type: biochemical
Settings: 0.03 μM compound; Table 3
Would you kindly list CDK2 % Inhibition at 0.03 μM for each of these compounds?
One number for each entry, in %.

Study these solved cases before continuing.
[[record]]
structure = "Nc1nc(NC2CCN(S(=O)(=O)c3ccc(F)cc3F)CC2)sc1C(=O)c1c(F)cccc1F"
targetortestsystem = "CDK2/Cyclin A (Homo sapiens)"
observationtype = "CDK2 % Inhibition at 0.03 μM"
number = 60

[[record]]
structure = "Nc1nc(NC2CCN(S(=O)(=O)c3ccc(-c4ccccc4)cc3)CC2)sc1C(=O)c1c(F)cccc1F"
targetortestsystem = "CDK2/Cyclin A (Homo sapiens)"
observationtype = "CDK2 % Inhibition at 0.03 μM"
number = 48

[[record]]
structure = "Cc1ccc(S(=O)(=O)N2CCC(Nc3nc(N)c(C(=O)c4c(F)cccc4F)s3)CC2)cc1"
targetortestsystem = "CDK2/Cyclin A (Homo sapiens)"
observationtype = "CDK2 % Inhibition at 0.03 μM"
number = 64

[[record]]
structure = "Nc1nc(NC2CCN(S(=O)(=O)c3ccccc3)CC2)sc1C(=O)c1c(F)cccc1F"
targetortestsystem = "CDK2/Cyclin A (Homo sapiens)"
observationtype = "CDK2 % Inhibition at 0.03 μM"
number = 73

[[record]]
structure = "CN(C)c1ccc(N=Nc2ccc(S(=O)(=O)N3CCC(Nc4nc(N)c(C(=O)c5c(F)cccc5F)s4)CC3)cc2)cc1"
targetortestsystem = "CDK2/Cyclin A (Homo sapiens)"
observationtype = "CDK2 % Inhibition at 0.03 μM"
number = "−20"


Batch: CDK2 % Inhibition at 0.03 μM for all items listed.
1. CC(=O)Nc1nc(C)c(S(=O)(=O)N2CCC(Nc3nc(N)c(C(=O)c4c(F)cccc4F)s3)CC2)s1
2. Cc1cccc(S(=O)(=O)N2CCC(Nc3nc(N)c(C(=O)c4c(F)cccc4F)s3)CC2)c1
3. COc1ccc(S(=O)(=O)N2CCC(Nc3nc(N)c(C(=O)c4c(F)cccc4F)s3)CC2)cc1
4. Cc1ccc2cc(S(=O)(=O)N3CCC(Nc4nc(N)c(C(=O)c5c(F)cccc5F)s4)CC3)ccc2c1

Reply:
[15, 58, 78, 44]

----------
Would you kindly list CDK2 % Inhibition At 0.03 μM for each of these compounds?
Molecular target: CDK2/Cyclin A (Homo sapiens, UniProt P24941)
Assay: Inhibition of CDK2/Cyclin A Retinoblastoma Kinase Activity
Assay type: biochemical
Settings: 0.03 μM compound; Table 2
Answers are plain numbers, in %.

[[record]]
compound = "CCOC(=O)C(NC(=O)N1CCC(Nc2nc(N)c(C(=O)c3c(F)cccc3F)s2)CC1)C(C)C (stereo not shown)"
observationtype = "CDK2 % Inhibition At 0.03 μM"
number = 35

[[record]]
compound = "COC(=O)c1cccc(NC(=O)N2CCC(Nc3nc(N)c(C(=O)c4c(F)cccc4F)s3)CC2)c1"
observationtype = "CDK2 % Inhibition At 0.03 μM"
number = 24

[[record]]
compound = "CC(C)c1ccccc1NC(=O)N1CCC(Nc2nc(N)c(C(=O)c3c(F)cccc3F)s2)CC1"
observationtype = "CDK2 % Inhibition At 0.03 μM"
number = 30

[[record]]
compound = "COC(=O)NC(=O)N1CCC(Nc2nc(N)c(C(=O)c3c(F)cccc3F)s2)CC1"
observationtype = "CDK2 % Inhibition At 0.03 μM"
number = 33

[[record]]
compound = "Nc1nc(NC2CCN(C(=O)Nc3cc(Cl)nc(Cl)c3)CC2)sc1C(=O)c1c(F)cccc1F"
observationtype = "CDK2 % Inhibition At 0.03 μM"
number = 32

[[record]]
compound = "Nc1nc(NC2CCN(C(=O)NCCCl)CC2)sc1C(=O)c1c(F)cccc1F"
observationtype = "CDK2 % Inhibition At 0.03 μM"
number = 30

[[record]]
compound = "CC(C)NC(=O)N1CCC(Nc2nc(N)c(C(=O)c3c(F)cccc3F)s2)CC1"
observationtype = "CDK2 % Inhibition At 0.03 μM"
number = 30

[[record]]
compound = "Nc1nc(NC2CCN(C(=O)Nc3cccc(Br)c3)CC2)sc1C(=O)c1c(F)cccc1F"
observationtype = "CDK2 % Inhibition At 0.03 μM"
number = 31


Batch: CDK2 % Inhibition At 0.03 μM for all items listed.
1. Nc1nc(NC2CCN(C(=O)NC3CCCCC3)CC2)sc1C(=O)c1c(F)cccc1F
2. N#Cc1ccc(NC(=O)N2CCC(Nc3nc(N)c(C(=O)c4c(F)cccc4F)s3)CC2)cc1
3. CN1C(=O)c2ccc(NC(=O)N3CCC(Nc4nc(N)c(C(=O)c5c(F)cccc5F)s4)CC3)cc2C1=O
4. Nc1nc(NC2CCN(C(=O)NCc3ccccc3)CC2)sc1C(=O)c1c(F)cccc1F
5. N#Cc1cccc(NC(=O)N2CCC(Nc3nc(N)c(C(=O)c4c(F)cccc4F)s3)CC2)c1
6. Nc1nc(NC2CCN(C(=O)Nc3ccc(C(F)(F)F)cc3)CC2)sc1C(=O)c1c(F)cccc1F
7. Nc1nc(NC2CCN(C(=O)Nc3ccc(Cl)cc3)CC2)sc1C(=O)c1c(F)cccc1F

Reply:
1: 30; 2: 29; 3: 31; 4: 40; 5: 31; 6: 36; 7: 26

Task item: Recorded CDK2 % Inhibition At 0.03 μM of Nc1nc(NC2CCN(C(=O)Nc3ccc(F)cc3)CC2)sc1C(=O)c1c(F)cccc1F , please.
Reply: 31

----------
Molecular target: human CDK4 and genetically truncated (1-264) cyclin D3 (Homo sapiens, UniProt P11802)
Sequence (P11802 whole entry, the tested form may be a part): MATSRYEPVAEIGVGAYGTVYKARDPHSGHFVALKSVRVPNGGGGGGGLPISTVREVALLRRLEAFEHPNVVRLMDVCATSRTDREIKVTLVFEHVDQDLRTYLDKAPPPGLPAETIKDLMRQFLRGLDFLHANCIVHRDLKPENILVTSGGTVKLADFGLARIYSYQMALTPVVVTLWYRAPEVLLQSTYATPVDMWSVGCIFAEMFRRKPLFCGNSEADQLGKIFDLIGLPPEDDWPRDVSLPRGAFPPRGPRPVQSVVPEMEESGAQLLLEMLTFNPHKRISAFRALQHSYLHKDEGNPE
Sequence (P30281 1-264 partner): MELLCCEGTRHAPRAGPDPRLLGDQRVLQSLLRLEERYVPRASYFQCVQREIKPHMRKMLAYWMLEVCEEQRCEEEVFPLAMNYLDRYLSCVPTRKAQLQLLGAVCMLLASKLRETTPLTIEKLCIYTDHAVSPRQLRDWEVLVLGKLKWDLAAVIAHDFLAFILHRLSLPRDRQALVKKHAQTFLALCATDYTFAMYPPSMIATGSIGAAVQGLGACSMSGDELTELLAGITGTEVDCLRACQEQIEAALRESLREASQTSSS
Assay: Inhibition of CDK4/Cyclin D Retinoblastoma Kinase Activity
Format: biochemical
Settings: at 0.03 μM
Method: Cyclin-dependent kinase activity was measured by quantifying the enzyme-catalyzed, time-dependent incorporation of radioactive phosphate from [^32P]ATP or [^33P]ATP into a protein substrate. […] The phosphorylated substrate was then captured on a nitrocellulose or phosphocellulose membrane using a 96-well filtration manifold, and unincorporated radioactivity was removed by repeated washing with 0.85% phosphoric acid. Radioactivity was quantified by exposing the dried membranes to a phosphorimager. […]
observationType: CDK4 % Inhibition at 0.03 μM (%)
Give bare numbers, in %.

Study these solved cases before continuing.
[[record]]
compound = "Cc1ccc(C(=O)N2CCC(Nc3nc(N)c(C(=O)c4c(F)cccc4F)s3)CC2)cc1C"
number = 82

[[record]]
compound = "COC(C(=O)N1CCC(Nc2nc(N)c(C(=O)c3c(F)cccc3F)s2)CC1)(c1ccccc1)C(F)(F)F (stereo not shown) [Example R39]"
number = 16

[[record]]
compound = "Nc1nc(NC2CCN(C(=O)c3cc(C(F)(F)F)ccc3C(F)(F)F)CC2)sc1C(=O)c1c(F)cccc1F"
number = 37

[[record]]
compound = "CC1(C(=O)N2CCC(Nc3nc(N)c(C(=O)c4c(F)cccc4F)s3)CC2)CCCCC1"
number = "−4"

[[record]]
compound = "Nc1nc(NC2CCN(C(=O)c3cccc(Cl)c3)CC2)sc1C(=O)c1c(F)cccc1F"
number = 55

[[record]]
compound = "COC(=O)CCCCC(=O)N1CCC(Nc2nc(N)c(C(=O)c3c(F)cccc3F)s2)CC1"
number = 32


Task item: Recorded CDK4 % Inhibition at 0.03 μM of Nc1nc(NC2CCN(C(=O)c3csc(C4COc5ccccc5O4)n3)CC2)sc1C(=O)c1c(F)cccc1F (stereo not shown) , please.
Reply: 36

----------
Would you kindly list CDK4 % Inhibition at 0.03 μM for each of these compounds?
Target: human CDK4 and genetically truncated (1-264) cyclin D3 (Homo sapiens)
Assay: Inhibition of CDK4/Cyclin D Retinoblastoma Kinase Activity
Format: biochemical
Conditions: 0.03 μM compound; Table 2
Method: Cyclin-dependent kinase activity was measured by quantifying the enzyme-catalyzed, time-dependent incorporation of radioactive phosphate from [^32P]ATP or [^33P]ATP into a protein substrate. […] The phosphorylated substrate was then captured on a nitrocellulose or phosphocellulose membrane using a 96-well filtration manifold, and unincorporated radioactivity was removed by repeated washing with 0.85% phosphoric acid. Radioactivity was quantified by exposing the dried membranes to a phosphorimager. […]
One number for each entry, in %.

[[record]]
compound = "Cc1ccc(NC(=O)N2CCC(Nc3nc(N)c(C(=O)c4c(F)cccc4F)s3)CC2)cc1"
observationtype = "CDK4 % Inhibition at 0.03 μM"
unitofmeasure = "%"
number = 21

[[record]]
compound = "COc1cccc(NC(=O)N2CCC(Nc3nc(N)c(C(=O)c4c(F)cccc4F)s3)CC2)c1"
observationtype = "CDK4 % Inhibition at 0.03 μM"
unitofmeasure = "%"
number = 4

[[record]]
compound = "CCOC(=O)C(CCSC)NC(=O)N1CCC(Nc2nc(N)c(C(=O)c3c(F)cccc3F)s2)CC1 (centres unmarked)"
observationtype = "CDK4 % Inhibition at 0.03 μM"
unitofmeasure = "%"
number = 7


Batch: CDK4 % Inhibition at 0.03 μM for all items listed.
1. Nc1nc(NC2CCN(C(=O)Nc3cccc(Cl)c3)CC2)sc1C(=O)c1c(F)cccc1F
2. Nc1nc(NC2CCN(C(=O)Nc3ccc(Cl)cc3)CC2)sc1C(=O)c1c(F)cccc1F
3. CCCNC(=O)N1CCC(Nc2nc(N)c(C(=O)c3c(F)cccc3F)s2)CC1

Reply:
9
7
−3
